Exercise: for every item that follows, state its recorded Antagonism 1 μM Inhibition (%).
System name: UniProtKB O66040
Assay protocol: S. Typhimurium-pJNS25 SdiA reporter, competitive antagonism against 10 nM L-OOHL
Assay type: cell-based
Cond: 1 μM compound; average ± STD, change in activity from 10 nM 2 (OOHL)
Procedure: Biological assays for SdiA activity. Cell-based reporter strains that rely on detecting the transcriptional activity of LuxR-type receptors are commonly used to assess the activity of exogenous ligands. We used the S. Typhimurium-pJNS25 reporter strain constructed by Smith and Ahmer and also used by Janssens et al. to examine SdiA activity. […] SdiA activity is then measured using standard β-galactosidase assays. […]
One number for each entry, in %.

Worked cases, Antagonism 1 μM Inhibition (%) given:
Cc1ccc(C(=O)CCC(=O)N[C@H]2CCOC2=O)cc1
21
COc1ccccc1C1CCN(c2ccc(/C=C/C(=O)N[C@H]3CCOC3=O)cc2[N+](=O)[O-])CC1
18
O=C(Cc1ccc(F)cc1)N[C@H]1CCOC1=O
2
O=C(N[C@H]1CCOC1=O)c1ccccc1
26
O=C(Cc1cc(C(F)(F)F)cc(C(F)(F)F)c1)N[C@H]1CCOC1=O
18

The following compounds each have a reported value; give each one's Antagonism 1 μM Inhibition (%).
1. Cc1ccc(C(=O)N[C@H]2CCOC2=O)cc1
2. O=C(N[C@H]1CCOC1=O)c1ccc(I)cc1
3. COc1ccc(CC(=O)N[C@H]2CCOC2=O)cc1
4. O=C(NCc1cc(Br)cc(Br)c1OC(=O)c1ccccc1[N+](=O)[O-])c1ccccc1Cl [19P, reference compound]
5. CCCCCCCCCC(=O)CC(=O)Nc1cccc(OC)c1 [compound 14, reference compound]
6. CCCCCCC(=O)N[C@H]1CCOC1=O [compound 4, reference compound]
7. O=C(Cc1ccc(C(F)(F)F)cc1)N[C@H]1CCOC1=O
8. O=C(N[C@H]1CCOC1=O)c1ccc(-c2ccccc2)cc1

1: 17; 2: 28; 3: -11; 4: 39; 5: 22; 6: 26; 7: 15; 8: 20

###

System name: SdiA (Salmonella enterica subsp. enterica serovar Typhimurium, UniProt O66040)
Sequence (O66040 entry or part of it): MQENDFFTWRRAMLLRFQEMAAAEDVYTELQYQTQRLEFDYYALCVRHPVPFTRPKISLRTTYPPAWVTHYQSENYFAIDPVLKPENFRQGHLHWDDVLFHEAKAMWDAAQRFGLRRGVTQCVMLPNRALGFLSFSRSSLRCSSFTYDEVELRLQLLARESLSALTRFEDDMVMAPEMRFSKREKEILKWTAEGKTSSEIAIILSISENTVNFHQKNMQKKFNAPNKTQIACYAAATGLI
Assay protocol: S. Typhimurium-pJNS25 SdiA reporter, agonism (luminescence)
Format: cell-based
Cond: maximal activity (efficacy) from agonism dose–response; 10 μM OOHL = 100%, DMSO = 0%; read-out: activation (%)
Recorded endpoint: Emax (%)
One number for each entry, in %.

CCCCCC(=O)CC(=O)N[C@H]1CCOC1=O [compound 2, reference compound]
110

Take each entry in turn and give its Emax.
1. Cc1cccc(OCC(=O)N[C@H]2CCOC2=O)c1
2. N#Cc1cccc(CC(=O)N[C@H]2CCOC2=O)c1
3. Cc1cccc(CC(=O)N[C@H]2CCOC2=O)c1 [E1]
4. CCCC(=O)N[C@H]1CCSC1=O

100
73
99
91

###

System name: SdiA (Salmonella enterica subsp. enterica serovar Typhimurium, UniProt O66040)
Assay protocol: S. Typhimurium-pJNS25 SdiA reporter, competitive antagonism against 10 nM L-OOHL
Type: cell-based
Cond: 1 μM compound; average ± STD, change in activity from 10 nM 2 (OOHL)
For each of the compounds below, state its Antagonism 1 μM Inhibition (%).
Answers are plain numbers, in %.

O=C(CCc1ccc([N+](=O)[O-])cc1)N[C@H]1CCOC1=O
34
O=C(C=Cc1ccccc1)NC1CCOC1=O (stereo not drawn)
16
O=C(Cc1cccc(C(F)(F)F)c1)N[C@H]1CCOC1=O
-14
[N-]=[N+]=Nc1ccc(CC(=O)N[C@H]2CCOC2=O)cc1
13
O=C(Cc1ccc(SC(F)(F)F)cc1)N[C@H]1CCOC1=O
34

Input O=C(Cc1ccc(O)cc1)N[C@H]1CCOC1=O . Output Antagonism 1 μM Inhibition (%): 6

Cited source: paper PMC6204753
